B1: TPR t1 (parent)
chain: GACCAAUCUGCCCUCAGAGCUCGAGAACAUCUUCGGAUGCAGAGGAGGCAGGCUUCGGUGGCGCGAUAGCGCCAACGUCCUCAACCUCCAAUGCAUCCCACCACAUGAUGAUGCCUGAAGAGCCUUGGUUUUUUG

- Variants of: B1
- assay overview: polymerase ribozyme fitness, log enrichment relative to wild type (log ratio); higher = more active; in vitro selection for triplet polymerase activity
Please go through the items and note down their polymerase ribozyme fitness (log ratio).
Lab note: jot the number down without any unit.

What does the record list as polymerase ribozyme fitness (log ratio) for C70U C82A ? -1.09

What does the record list as polymerase ribozyme fitness (log ratio) for A46U A91G ? -1.96

Recorded polymerase ribozyme fitness (log ratio) of C11G C40G G42U C73G U87A , please. -4.66

Quick check: polymerase ribozyme fitness (log ratio) of C8U A46G G48C C72G C80U A105C G122A ? -5.9

Report polymerase ribozyme fitness (log ratio) for C49A C123U please. 1.14

Which polymerase ribozyme fitness (log ratio) value belongs to A43U C76A ? -2.98

Name the recorded polymerase ribozyme fitness (log ratio) for C8G C11U C124A . 2.24

Any idea what its polymerase ribozyme fitness (log ratio) is? The variant is C22A A83G -5.4

Requested field: polymerase ribozyme fitness (log ratio). Item: C11U A24U G65C A103C A108U A111U -6.52

Which polymerase ribozyme fitness (log ratio) reading was recorded for the variant G58C U106A ? 0.185

Fill blank: measured polymerase ribozyme fitness (log ratio) of the variant C8U G23C C34U G61A G93A U109C is ____. -6.59

The values you see were collected from the RNAGym collection of RNA variant scans (doi:10.1073/pnas.2313332121).
